# assayExplanation: chemical genetic growth profiling, strain panel (AID 1159580);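 note: tested at 20 µM; growth read once vehicle control cultures reached saturation at 30 °C; 1 = growth at the plate median or of vehicle wells; lower values mean less growth of the strain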
# details: S. cerevisiae deletion strains, growth OD, locus YGL227W, strain vid30
Hit rate of the full screen: of about 5,500 compounds, about 2,000 (36%) were called active. Inconclusive results (about 18%) are left out. Cut-off read from the data, not from the text of the source: active = normalized growth mostly below about 0.91 (no sharp cut-off); inconclusive = no clear call, values can overlap the other calls; inactive = mostly above about 0.92. Some of the results follow.
Return exactly one item of True = active, False = inactive

{"compound": "CN(C)c1nc(N(C)C)nc(N(C)C)n1", "group": "False"}

Returns: the outcome recorded for "Cc1ncc([N+](=O)[O-])n1CCO" in this assay.
False

Returns: the outcome recorded for "NCCS" in this assay.
False

Returns: the outcome recorded for CSCCC(NC=O)C(=O)NC(CC(C)C)C(=O)NC(Cc1ccccc1)C(=O)O (centres undefined) in this assay.
False

Returns: the outcome recorded for "O=C1c2ccccc2-c2cccc3cccc1c23" in this assay.
False

Returns: the outcome recorded for "COc1ccc2c(=O)c(-c3cc4c(cc3OC)OCO4)coc2c1" in this assay.
False

Returns: the outcome recorded for "Fc1ccc(C(c2ccc(F)cc2)N2CCN(C/C=C/c3ccccc3)CC2)cc1" in this assay.
True

Returns: the outcome recorded for "CC1(C)C[C@@H]2C(=O)CC[C@H]3O[C@]3(C)CC[C@H]21" in this assay.
False

Returns: the outcome recorded for "COc1ccc2c(=O)c(CC(=O)O)coc2c1" in this assay.
False

====

# assayExplanation: chemical genetic growth profiling, strain panel (AID 1159580);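 note: tested at 20 µM; growth read once vehicle control cultures reached saturation at 30 °C; 1 = growth at the plate median or of vehicle wells; lower values mean less growth of the strain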
# details: S. cerevisiae deletion strains, growth OD, locus YER111C, strain swi4, hits give low values
The whole screen tested about 5,500 compounds, of which about 2,000 (36%) were called active. Not shown: some 18% with an inconclusive outcome. The list shows a part of the results.
Let's look at some compounds and their measured normalized growth.
Number, no unit, nothing else.

Sample records with normalized growth:
{"moleculeSmiles": "C[C@H]1C(=O)O[C@@H]2CCN3CC=C(COC(=O)[C@](C)(O)[C@]1(C)O)[C@H]23", "normalized growth": 0.969}
{"moleculeSmiles": "Nc1ncnc2nc[nH]c12", "normalized growth": 0.983}
{"moleculeSmiles": "c1ccc2c(c1)[nH]c1cnccc12", "normalized growth": 0.984}

Here's the next entry for you.
For the compound "FC(F)(F)COCC(F)(F)F" , give its measured normalized growth value.
1.01

====

# assayExplanation: chemical genetic growth profiling, strain panel (AID 1159580);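 note: tested at 20 µM; growth read once vehicle control cultures reached saturation at 30 °C; 1 = growth at the plate median or of vehicle wells; lower values mean less growth of the strain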
# details: S. cerevisiae deletion strains, growth OD, locus YPR163C, strain tif3, hits give low values
Among all 5,500 compounds or so, about 2,000 (36%) were called active. Roughly 18% stayed inconclusive and do not appear here. Some of the results follow.
Let's look at some molecules and their measured normalized growth.
Number, no unit, nothing else.

{"molecule": "COc1cc2ccc(=O)oc2c(O)c1O", "readoutNumber": 0.985}
{"molecule": "COc1c(O)cc(O)cc1O", "readoutNumber": 0.997}
{"molecule": "CCC(=O)O[C@H]1CCC2C3CCc4cc(O)ccc4C3CC[C@@]21C (stereo partly specified)", "readoutNumber": 1.02}

For the molecule C[C@]12CCC3c4ccc(O)cc4CCC3C1CC[C@@H]2OC(=O)CCC1CCCC1 (stereo partly specified) , give its measured normalized growth value.
1

For the molecule "O=c1ccc2cc(O[C@@H]3O[C@H](CO)[C@@H](O)[C@H](O)[C@H]3O)c(O)cc2o1" , give its measured normalized growth value.
0.987

For the molecule "CCN(CC)CCNC(=O)COc1ccc(OC)cc1" , give its measured normalized growth value.
0.994

For the molecule "COc1cc2ccc(=O)oc2cc1O" , give its measured normalized growth value.
0.989

For the molecule "COc1cc(O)c(C(C)=O)c(OC)c1" , give its measured normalized growth value.
0.986

For the molecule "COc1ccc2c(=O)c(-c3cc4c(cc3OC)OCO4)coc2c1" , give its measured normalized growth value.
0.992

For the molecule CC(=O)OCC(=O)[C@@]1(O)CCC2C3CCC4=CC(=O)CC[C@]4(C)[C@@]3(F)[C@@H](O)C[C@@]21C (stereo partly specified) , give its measured normalized growth value.
1

For the molecule "O=C(O)c1cc2cc(Cl)ccc2[nH]1" , give its measured normalized growth value.
0.991
